Measured self-cleavage kobs at 2500 uM GlcN6P of individual entries
B1: glmS ribozyme (parent)
chain: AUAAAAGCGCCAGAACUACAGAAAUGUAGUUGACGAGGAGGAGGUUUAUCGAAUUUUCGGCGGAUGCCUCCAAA

variants of: B1; assay: self-cleavage kobs at 2500 uM GlcN6P; higher = faster cleavage; RNA array; conditions: with glucosamine-6-phosphate
Fewer inactive variants are shown than the library holds.
Lab book: enter the figure in s⁻¹, no units written.

Query string: Look up self-cleavage kobs at 2500 uM GlcN6P of G13A U57C and report it.
Result string: 2.88e-05

Query string: Look up self-cleavage kobs at 2500 uM GlcN6P of A6U A39U C70U and report it.
Result string: 4.96e-05

Query string: Look up self-cleavage kobs at 2500 uM GlcN6P of C8G G32U U47G C67G C68G and report it.
Result string: 4.39e-05

Query string: Look up self-cleavage kobs at 2500 uM GlcN6P of A42G U69C and report it.
Result string: 0.0132

Query string: Look up self-cleavage kobs at 2500 uM GlcN6P of U55C U65C and report it.
Result string: 0.00011

Query string: Look up self-cleavage kobs at 2500 uM GlcN6P of C11A U54G C67G C71A and report it.
Result string: 0.000224

Query string: Look up self-cleavage kobs at 2500 uM GlcN6P of A12C G44A A53U and report it.
Result string: 0.000169

Query string: Look up self-cleavage kobs at 2500 uM GlcN6P of G29C C67G and report it.
Result string: 4.84e-05

Query string: Look up self-cleavage kobs at 2500 uM GlcN6P of A14U G41U U54A and report it.
Result string: 0.000104

Query string: Look up self-cleavage kobs at 2500 uM GlcN6P of C16A A39U U54C and report it.
Result string: 0.000434

Query string: Look up self-cleavage kobs at 2500 uM GlcN6P of A15C U56A and report it.
Result string: 0.00218

Query string: Look up self-cleavage kobs at 2500 uM GlcN6P of U47A U56A C70U and report it.
Result string: 0.00157

Query string: Look up self-cleavage kobs at 2500 uM GlcN6P of G40U U49G C71G and report it.
Result string: 8.01e-05
